Answer each item with its documented solvation free energy, 298 K.
assay: solvent given as SMILES; details: in O
Give bare numbers, in kcal/mol.

{"compound": "C=CCC=CC", "result": 1.09}
{"compound": "O=Cc1ccco1", "result": -5.28}
{"compound": "CC1=CCC(C(C)C)C=C1 (configuration not stated)", "result": 0.2}
{"compound": "C#CC=C", "result": 0.04}
{"compound": "O=[N+]([O-])c1cccc(Cl)c1", "result": -4.45}
{"compound": "CCCCC(=O)O", "result": -6.13}
{"compound": "CCCC[N+](=O)[O-]", "result": -3.1}
{"compound": "CCCCBr", "result": -0.34}
{"compound": "O=C(O)C(O)c1ccccc1 (configuration not stated)", "result": -13.7}
{"compound": "CCCC(=O)CC(=O)CCC", "result": -4.33}

Would you mind giving solvation free energy, 298 K for every compound in the list below?
1. CC(C)=CCCC(C)CCOC=O (configuration not stated)
2. CCC=C(C)C
3. CCCCC(CC)CO (configuration not stated)
4. C=C1CCC2CC3C(C)CCC13C2(C)C (configuration not stated)
5. BrC(Br)Br
6. OC1CCCCC1

Reply |
1. -3.08
2. 1.47
3. -3.96
4. 0.83
5. -1.96
6. -5.44

Would you mind giving solvation free energy, 298 K for every compound in the list below?
1. CC1(C)C2=CCCC(C)(C)C23CCC1C3 (configuration not stated)
2. c1ccc2c(c1)Cc1ccccc1-2
3. C1=CCCC=C1
4. CCC
5. CC1=CCC2(C)CCCC(C)(C)C23CC13 (configuration not stated)
6. Ic1ccccc1

Reply |
0.71
-3.34
-0.26
1.96
0.46
-1.75

All values here come from the CombiSolv-Exp solvation set (Vermeire and Green 2021).
